Give measured shrunken log2 fold change for each item. Keep answers brief.
# Tested on: Escherichia coli TOP10
# Assay name: shrunken log2 fold change of peptide-encoding DNA abundance (4.5 h post-induction vs induction); higher = less antimicrobial activity (less host growth inhibition)
# Experimental setup: time post-induction: 4.5 h; library: site-saturation at positions 5, 18, 19, 20
Answers are plain numbers.

Some entries whose results are on file:
1) RRIRLRPPRLPRPRPRPQACPRP: 0.00768
2) RRIRQRPPRLPRPRPRPVDSPRP: 0.0997
3) RRIRTRPPRLPRPRPRPDVQPRP: 0.0493
4) RRIRVRPPRLPRPRPRPRYQPRP: 0.171
5) RRIRARPPRLPRPRPRPIGNPRP: 0.00902

Below are 8 sequences. Give each one its shrunken log2 fold change.
1. RRIRSRPPRLPRPRPRPMPTPRP
2. RRIRERPPRLPRPRPRPRFKPRP
3. RRIRIRPPRLPRPRPRPVYSPRP
4. RRIRWRPPRLPRPRPRPFWHPRP
5. RRIRFRPPRLPRPRPRPMLMPRP
6. RRIRSRPPRLPRPRPRPTNAPRP
7. RRIRGRPPRLPRPRPRPSGYPRP
8. RRIRTRPPRLPRPRPRPPNAPRP

Ans.
1: 0.358; 2: 0.00602; 3: -0.102; 4: -0.0195; 5: -0.0715; 6: -0.0746; 7: -0.167; 8: 0.535

// for each sequence in input: emit shrunken log2 fold change
1. RRIRNRPPRLPRPRPRPYPLPRP
2. RRIRDRPPRLPRPRPRPFCHPRP

Ans.
1: -0.042; 2: -0.00713

* * *

# Tested on: Escherichia coli TOP10
# Assay name: shrunken log2 fold change of peptide-encoding DNA abundance (4.5 h post-induction vs induction); higher = less antimicrobial activity (less host growth inhibition)
# Experimental setup: time post-induction: 4.5 h; library: site-saturation at positions 5, 18, 19, 20
Observable: shrunken log2 fold change

Would you please look over these solved cases?
1. RRIRMRPPRLPRPRPRPMDQPRP: -0.0516
2. RRIRWRPPRLPRPRPRPNDSPRP: -0.134
3. RRIRARPPRLPRPRPRPQIAPRP: 0.499
4. RRIRTRPPRLPRPRPRPDRPPRP: 0.188

Working through the 3 sequences below one at a time, give shrunken log2 fold change for each.
1. RRIRRRPPRLPRPRPRPNLCPRP
2. RRIRDRPPRLPRPRPRPRLDPRP
3. RRIRGRPPRLPRPRPRPLHVPRP

Ans.
1: 0.00272; 2: 0.173; 3: -0.0922

* * *

# Test system: Escherichia coli TOP10
# Assay name: shrunken log2 fold change of peptide-encoding DNA abundance (4.5 h post-induction vs induction); higher = less antimicrobial activity (less host growth inhibition)
# Experimental setup: time post-induction: 4.5 h; library: site-saturation at positions 5, 18, 19, 20
Label condition met for high-side shrunken log2 fold change (at or above 0.02) and condition not met for low-side shrunken log2 fold change (below it).

Qu. Could you tell me if the measured shrunken log2 fold change of RRIRHRPPRLPRPRPRPFQGPRP reaches 0.02 or more?
Ans. condition not met

Qu. Let us now turn to RRIRYRPPRLPRPRPRPFDIPRP
Ans. condition not met

Qu. And RRIRNRPPRLPRPRPRPQEYPRP ?
Ans. condition not met

Qu. Ok, now RRIRNRPPRLPRPRPRPAYPPRP
Ans. condition not met

Qu. Follow-up item: RRIRVRPPRLPRPRPRPGLTPRP
Ans. condition not met

Qu. Moving on to the next sequence: RRIRVRPPRLPRPRPRPIHPPRP
Ans. condition met

Qu. Proceed to RRIRWRPPRLPRPRPRPIAPPRP
Ans. condition met

Qu. RRIRERPPRLPRPRPRPPHVPRP , same question.
Ans. condition not met

* * *

Would you kindly list shrunken log2 fold change for each of these sequences?
# System: Escherichia coli TOP10
# Assay name: shrunken log2 fold change of peptide-encoding DNA abundance (4.5 h post-induction vs induction); higher = less antimicrobial activity (less host growth inhibition)
# Experimental setup: time post-induction: 4.5 h; library: site-saturation at positions 5, 18, 19, 20

Use these answered entries as a reference point.
1) RRIRVRPPRLPRPRPRPNFLPRP: -0.0134
2) RRIRYRPPRLPRPRPRPLARPRP: -0.265
3) RRIRIRPPRLPRPRPRPQNTPRP: -0.86
4) RRIRTRPPRLPRPRPRPWWSPRP: -0.143
5) RRIRMRPPRLPRPRPRPIPPPRP: 0.369

I have 5 sequences here; please give me shrunken log2 fold change for each one.
1. RRIRNRPPRLPRPRPRPHHDPRP
2. RRIRERPPRLPRPRPRPDYRPRP
3. RRIRWRPPRLPRPRPRPPHQPRP
4. RRIRSRPPRLPRPRPRPGNSPRP
5. RRIRKRPPRLPRPRPRPDEGPRP

Ans.
1. -1.01
2. -0.285
3. 0.235
4. 0.0554
5. -0.01

List reported shrunken log2 fold change for each of these sequences:
1. RRIRHRPPRLPRPRPRPHSDPRP
2. RRIRTRPPRLPRPRPRPIEMPRP
3. RRIRHRPPRLPRPRPRPTVSPRP
4. RRIRERPPRLPRPRPRPMEEPRP
5. RRIRGRPPRLPRPRPRPTEMPRP
6. RRIRKRPPRLPRPRPRPPENPRP
7. RRIRTRPPRLPRPRPRPSFHPRP

Ans.
[0.0468, -0.25, -0.0706, 0.161, 0.814, 1.15, -0.772]

// each listed sequence needs a value for shrunken log2 fold change
1. RRIRGRPPRLPRPRPRPSGSPRP
2. RRIRHRPPRLPRPRPRPTFYPRP
3. RRIRQRPPRLPRPRPRPDSEPRP

Ans.
1. 0.128
2. -0.183
3. 0.138

* * *

# System: Escherichia coli TOP10
# Assay name: shrunken log2 fold change of peptide-encoding DNA abundance (4.5 h post-induction vs induction); higher = less antimicrobial activity (less host growth inhibition)
# Experimental setup: time post-induction: 4.5 h; library: site-saturation at positions 5, 18, 19, 20
Binning rule for recorded shrunken log2 fold change: bucket A: < -0.2; bucket B: ≥ -0.2 and < -0.006; bucket C: ≥ -0.006

Sample answers from the record:
1. RRIRTRPPRLPRPRPRPHVKPRP: bucket B
2. RRIRVRPPRLPRPRPRPCDNPRP: bucket A
3. RRIRDRPPRLPRPRPRPFYKPRP: bucket A
4. RRIRNRPPRLPRPRPRPNDVPRP: bucket C
5. RRIRQRPPRLPRPRPRPFDMPRP: bucket B
6. RRIRFRPPRLPRPRPRPCMKPRP: bucket C
7. RRIRFRPPRLPRPRPRPFVVPRP: bucket A
8. RRIRDRPPRLPRPRPRPAFWPRP: bucket B
9. RRIRSRPPRLPRPRPRPQQQPRP: bucket B
10. RRIRWRPPRLPRPRPRPHRAPRP: bucket C

Qu. Lab note: which band did RRIRMRPPRLPRPRPRPELMPRP land in?
Ans. bucket C

Qu. Now the sequence RRIRTRPPRLPRPRPRPMIKPRP
Ans. bucket B

Qu. For RRIRCRPPRLPRPRPRPLNCPRP then?
Ans. bucket A

Qu. For RRIRARPPRLPRPRPRPIKWPRP then?
Ans. bucket C

Qu. What do you have for RRIRPRPPRLPRPRPRPDDLPRP ?
Ans. bucket A

* * *

# Tested on: Escherichia coli TOP10
# Assay name: shrunken log2 fold change of peptide-encoding DNA abundance (4.5 h post-induction vs induction); higher = less antimicrobial activity (less host growth inhibition)
# Experimental setup: time post-induction: 4.5 h; library: site-saturation at positions 5, 18, 19, 20
Param threshold (-0.2) applies to shrunken log2 fold change; output met when value >= threshold, not met when value < threshold.

1) RRIRNRPPRLPRPRPRPGFWPRP: met

Qu. Given the entry RRIRYRPPRLPRPRPRPEVAPRP , answer whether its shrunken log2 fold change meets or surpasses -0.2.
Ans. met

Qu. And then RRIRCRPPRLPRPRPRPHIHPRP , what is it?
Ans. not met

* * *

I'd appreciate it if you could supply shrunken log2 fold change values for the items below.
# Tested on: Escherichia coli TOP10;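 further: peptides expressed intracellularly from a pBAD plasmid library in pooled LB shake-flask culture, induced with 0.3% L-arabinose, DNA abundance read by NGS, three biological replicates, DESeq2 with apeglm shrinkage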
# Assay name: shrunken log2 fold change of peptide-encoding DNA abundance (4.5 h post-induction vs induction); higher = less antimicrobial activity (less host growth inhibition)
# Experimental setup: time post-induction: 4.5 h; library: site-saturation at positions 5, 18, 19, 20
Numbers only.

Consider the worked cases shown below.
1) RRIRRRPPRLPRPRPRPESLPRP: 0.0493
2) RRIRDRPPRLPRPRPRPNCKPRP: 0.135
3) RRIRGRPPRLPRPRPRPMCAPRP: 1.88

Need shrunken log2 fold change for each of these sequences.
1. RRIRPRPPRLPRPRPRPFMLPRP
2. RRIRDRPPRLPRPRPRPIAYPRP
3. RRIRPRPPRLPRPRPRPGYWPRP
4. RRIRFRPPRLPRPRPRPTKNPRP
5. RRIRLRPPRLPRPRPRPYYVPRP
6. RRIRCRPPRLPRPRPRPRTIPRP
7. RRIRVRPPRLPRPRPRPKLHPRP

Ans.
[-0.378, -0.114, 0.278, -0.0239, -0.0539, -0.154, -0.237]

Give shrunken log2 fold change for each listed item.
1. RRIRPRPPRLPRPRPRPPPNPRP
2. RRIRIRPPRLPRPRPRPEYNPRP
3. RRIRMRPPRLPRPRPRPDWCPRP
4. RRIRHRPPRLPRPRPRPVMCPRP
5. RRIRNRPPRLPRPRPRPSQQPRP
6. RRIRKRPPRLPRPRPRPQGEPRP

Ans.
0.743
0.0781
0.0698
-0.175
-0.111
-0.000844

For each of the sequences below, state shrunken log2 fold change.
1. RRIRTRPPRLPRPRPRPRNPPRP
2. RRIRIRPPRLPRPRPRPLHIPRP

Ans.
1. 0.000872
2. -1.21
